Assay overview: growth inhibition of non-replicating M. tuberculosis (AID 488890);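 further: plate controls were DMSO cells for no effect and high antibiotic wells for full effect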
Measurement conditions: Mycobacterium tuberculosis non-replicating, at 25 µM, stronger effect = higher value
The whole screen tested about 320,000 compounds, of which about 1,300 (0.41%) were called active. Roughly 3% stayed inconclusive and do not appear here. Only a sample is shown. Measured potencies and affinities stand elsewhere.
inhibition: recorded values
Assay metric: inhibition (%)

                                         smi  quantitative_readout
 0     O=C(CCSc1nnc(-c2ccc(O)cc2)o1)N1CCOCC1                  70.5
 1   Cc1cccc(C)c1NC(=O)c1ccc([N+](=O)[O-])s1                    67
 2             CC(=O)NCCOc1ccc2oc3ccccc3c2c1                  5.68
 3       COc1ccc(NC(=S)NCc2ccc(F)cc2)c(OC)c1                  14.9
 4  COc1ccc(CNc2nc3nc(C)c(Cl)c(=O)n3[nH]2)cc1                  28.1
 5  COc1cc(NC(=O)CN2CCN(c3ccccc3)CC2)c(C)cc1[N+](=O)[O-]                   -14
 6  Cc1ccnc(NS(=O)(=O)c2ccc(NC(=O)c3ccc(Cl)cc3[N+](=O)[O-])cc2)n1                  -0.5
 7  O=C(N/N=C/C=C\c1ccccc1[N+](=O)[O-])c1cccnc1                 -10.7
 8  Cc1cccc(NC(=O)c2cc3cc([N+](=O)[O-])ccc3s2)n1                  16.8
 9           O=C(N/N=C/C=C/c1ccccc1)c1cnccn1                  15.9
10  COc1ccc(CCNC(=O)COc2ccc(-c3ccc(C#N)cc3)cc2)cc1                  72.4
11               O=C(O)COc1ccc2oc3ccccc3c2c1                  3.49
12           O=C(N/N=C/C=C\c1ccccc1)c1cnccn1                  11.4
13  CC(=O)Nc1ccc(NC(=O)COc2ccc(-c3ccc(C#N)cc3)cc2)cc1                 -7.55
14    Cn1c(N)c(C(=O)CNC2CCCCC2)c(=O)n(C)c1=O                 -15.1
15         CCOc1ccc(CC(=O)N/N=C/c2cccnc2)cc1                 -5.71
16   Cc1cc(NC(=O)CC#N)n(-c2nc3ccccc3[nH]2)n1                 -8.39
17  O=C(Nc1ccccc1F)c1cc(C(=O)Nc2ccccc2F)cc([N+](=O)[O-])c1                  5.63

====

Assay overview: growth inhibition of non-replicating M. tuberculosis (AID 488890);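 further: plate controls were DMSO cells for no effect and high antibiotic wells for full effect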
Measurement conditions: Mycobacterium tuberculosis non-replicating, at 25 µM, stronger effect = higher value
The campaign covered roughly 320,000 compounds. About 1,300 (0.41%) were called active. Roughly 3% stayed inconclusive and do not appear here. Not all results are given here. Measured potencies and affinities stand elsewhere.
inhibition: recorded values
Assay metric: inhibition (%)

                                    compound  assay_metric  unit_string  quantitative_readout
 0  COc1ccc(NC(=O)/C(=C/c2cccs2)NC(=O)c2ccco2)cc1    inhibition            %                 -0.67
 1        Cc1cccc(N=N/C(=C\O)C(=O)c2cccs2)c1    inhibition            %                  23.2
 2   CCOc1ccc(Nc2ccc3nonc3c2[N+](=O)[O-])cc1    inhibition            %                 -4.04
 3  COc1cc(CC(=O)OCC(=O)Nc2ccc(Cl)c(S(=O)(=O)N(C)C)c2)cc(OC)c1OC    inhibition            %                  16.7
 4               CN1C(=O)N(C)c2cccc3cccc1c23    inhibition            %                  0.15
 5  Cc1ccc(C)c(-n2c(-c3csc(C)c3)n[nH]c2=S)c1    inhibition            %                  11.6
 6  COc1ccc(CC(C(=O)Nc2ccc(OC)cc2)c2nn[nH]n2)cc1 (stereo unspecified)    inhibition            %                  8.92
 7     CN(C)CCCn1c(-c2ccccc2)nc(=S)c2c1CCCC2    inhibition            %                  3.62
 8  CN(C(=O)CN1CC=C(c2ccccc2)CC1)c1c(N)n(Cc2ccccc2)c(=O)[nH]c1=O    inhibition            %                  8.33
 9               COc1ccc(Nc2ccccc2C(=O)O)cc1    inhibition            %                  3.87
10  CCC1CCc2sc(C(=O)NNC(=S)NCC3CCCO3)cc2C1 (stereo unspecified)    inhibition            %                  23.3
11  COc1cccc(C(=O)/C=C2\NCCc3cc(OC)c(OC)cc32)c1    inhibition            %                  21.5
12     O=[N+]([O-])c1c(Nc2ccccc2O)ccc2nonc12    inhibition            %                  61.7
13  COCCn1c(SCC(=O)Nc2ccc(S(=O)(=O)N(C)C)cc2)nc2ccccc21    inhibition            %                  0.14
14           O=C(/C(=C/O)N=Nc1ccccc1)c1cccs1    inhibition            %                  29.9
15     COc1ccc(C(=O)N/N=C2\CCc3ccccc32)cc1OC    inhibition            %                 -1.04
16  CC(CCc1ccccc1)NC(=O)c1ccc(F)cc1 (stereo unspecified)    inhibition            %                  65.9
17  CC(C)CNS(=O)(=O)c1ccc(S(=O)(=O)N2CCN(CCC#N)CC2)cc1    inhibition            %                  6.46
18                     CCc1ccccc1OCCCN1CCCC1    inhibition            %                  4.44
19  CCOc1ccc(OCC(O)CNC2CCN(Cc3ccccc3)CC2)cc1 (stereo unspecified)    inhibition            %                    35
20           CN1C(=O)N(C)c2ccc(Br)c3cccc1c23    inhibition            %                  6.26

====

Assay overview: growth inhibition of non-replicating M. tuberculosis (AID 488890);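 further: plate controls were DMSO cells for no effect and high antibiotic wells for full effect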
Measurement conditions: Mycobacterium tuberculosis non-replicating, at 25 µM, stronger effect = higher value
In all, about 320,000 compounds went through this assay and about 1,300 (0.41%) were called active. Another 3% or so got no clear call; they are omitted. The list is a sample of the results. Potency and affinity values are given separately.
Assay metric: inhibition (%)

>>> df
                                    compound  quantitative_readout
 0  O=C(N/N=C/c1cn(-c2ccccc2)nc1-c1cccs1)c1ccccc1F                  3.19
 1         CC1=NCCN1S(=O)(=O)c1ccc(Br)c(C)c1                  1.05
 2           N/C(=N\OC(=O)CC1CCCCC1)c1cccnc1                    73
 3  COc1cc(C2N(c3ccc(Cl)cc3)C(=O)C3CCCN32)cc(OC)c1OC (stereo not given)                 -23.2
 4  CCn1c(SCc2ccc([N+](=O)[O-])cc2)nnc1C(C)NC(=O)c1ccccc1Br (stereo not given)                  -7.9
 5  C=C1CCC2[C@](C)(CO)[C@H](O)CC[C@@]2(C)[C@@H]1/C=C/C1=CCOC1=O (stereo not given in full)                 -9.71
 6  Cc1ccc(NC(=O)C2CCN(C(=O)c3ccc(Cl)cc3)CC2)nc1                  11.3
 7    CCOC(=O)CCCNC(=O)COC(=O)c1cc(C)cc(C)c1                 -5.81
 8     COc1cccc(CNC(=O)C2CCN(c3cnccn3)CC2)c1                  -3.9
 9  COC(=O)c1ccc(C(=O)Nc2nnc(-c3cccnc3)o2)cc1                  7.58
10  COc1cc(C(=O)N2CCC(NC(=O)C(Cc3ccccc3C)NC(C)=O)CC2)cc(OC)c1OC (stereo not given)                   3.5
11   CCOC(=O)c1cnc(SCc2ccc(C(C)(C)C)cc2)nc1N                  14.9
12     O=C(Nc1nnc(-c2ccccc2)o1)c1cc(Cl)sc1Cl                  9.95
13  CCCOc1ccc(-c2c(C(=O)N/N=C/c3ccc(OCC)cc3)nnn2-c2nonc2N)cc1                  8.95
14  CCN(C[C@H]1N[C@@](C)(C(=O)OC)[C@H]2C(=O)N(C)C(=O)[C@@H]12)C(=O)C1CCCCC1                  1.05
15  COC(=O)c1ccc(C)c(NC(=O)C2COc3ccccc3O2)c1 (stereo not given)                  57.8
16  NS(=O)(=O)c1ccc(CCNC(=S)Nc2ccc(F)cc2)cc1                    30
17    O=C(Cn1nnc(-c2ccccc2)n1)NNC(=O)c1ccco1                  67.8
18  CC(NC(=O)c1cccs1)C(S)c1ccccc1 (stereo not given)                  13.2
19  COc1ccc(OC)c(C(=O)c2oc3ccccc3c2NC(C)=O)c1                 -5.83
20  CN(C(=O)COC(=O)c1ccc(Br)c(S(=O)(=O)N2CCOCC2)c1)C1CCCCC1                  11.1
21            O=C(Nc1ccc(F)cc1)c1cc(Cl)sc1Cl                  70.7
22       COC(=O)c1ccc(NC(=O)c2cccc(OC)c2)cc1                  27.8
23  CC1(C)CC(=O)C(=Cc2cn(-c3ccccc3)nc2-c2ccccc2)C(=O)C1                  44.3
24  CSc1cccc(NC(=O)CCNS(=O)(=O)c2ccc3[nH]c(=O)oc3c2)c1                 -8.71
